target: Peroxisome proliferator-activated receptor gamma (Homo sapiens); assay: Modulation of human PPARgamma-LBD expressed in african green monkey COS7 cells co-transfected with Gal4 assessed as activation of transactivation activity by luciferase assay
Sequence (P37231 whole entry, the tested form may be a part): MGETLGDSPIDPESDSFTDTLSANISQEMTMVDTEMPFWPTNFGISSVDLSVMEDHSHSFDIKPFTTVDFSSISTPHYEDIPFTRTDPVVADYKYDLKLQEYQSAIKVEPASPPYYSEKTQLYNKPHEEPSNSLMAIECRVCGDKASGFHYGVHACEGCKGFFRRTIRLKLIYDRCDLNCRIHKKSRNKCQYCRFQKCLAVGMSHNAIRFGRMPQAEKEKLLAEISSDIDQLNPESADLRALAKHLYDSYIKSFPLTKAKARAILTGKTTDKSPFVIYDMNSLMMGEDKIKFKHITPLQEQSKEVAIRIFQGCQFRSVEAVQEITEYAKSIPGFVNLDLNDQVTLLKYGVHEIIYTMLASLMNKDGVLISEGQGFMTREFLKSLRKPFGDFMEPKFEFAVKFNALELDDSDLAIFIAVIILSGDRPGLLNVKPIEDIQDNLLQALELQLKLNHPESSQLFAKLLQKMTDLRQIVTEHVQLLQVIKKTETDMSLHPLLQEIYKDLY
pEC50: −log10 of the molar value.
ATTRIBUTE MEASURED: pEC50

Worked set:
| MOLECULE | pEC50 |
| --- | --- |
| CCCCC(Cc1ccc(OCCC2CCCCC2)c(OCCC2CCCCC2)c1)C(=O)O (stereo not given) | 5.96 |
| CCCCC(Cc1cccc(OCCc2ccccc2)c1OCCc1ccccc1)C(=O)O (stereo not given) | 5.43 |
| CCCC/C(=C\c1cc(OCCc2ccccc2)ccc1OCCc1ccccc1)C(=O)O | 5.74 |

I = CCCCC(Cc1cc(OCCc2ccccc2)ccc1OCCc1ccccc1)C(=O)O (stereo not given)
II = CCCCC(Cc1ccc(OCCc2ccccc2)c(OCCc2ccccc2)c1)C(=O)O (stereo not given)
Problem: Of I and II , whose reported pEC50 is numerically smaller? Return value: the label identifying the chosen record.
Result: I
